Ki tested on Mu-type opioid receptor (Rattus norvegicus): recorded values
Sequence (P33535 whole entry): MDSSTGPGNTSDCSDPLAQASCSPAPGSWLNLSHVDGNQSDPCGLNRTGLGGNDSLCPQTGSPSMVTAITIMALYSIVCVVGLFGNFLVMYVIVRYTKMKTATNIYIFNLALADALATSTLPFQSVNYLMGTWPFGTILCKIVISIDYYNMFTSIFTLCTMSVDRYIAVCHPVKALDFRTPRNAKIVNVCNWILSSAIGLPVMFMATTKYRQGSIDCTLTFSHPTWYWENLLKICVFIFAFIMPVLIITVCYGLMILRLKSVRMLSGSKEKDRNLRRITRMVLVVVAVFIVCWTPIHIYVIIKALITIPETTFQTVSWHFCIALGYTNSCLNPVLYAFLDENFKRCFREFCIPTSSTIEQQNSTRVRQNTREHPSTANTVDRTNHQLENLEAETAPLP
Your answer should be a plain number; it is taken to be in nM.

[[record]]
compound = "CC1CN(CCCc2ccccc2)C2C[C@H](N)CC1(c1cccc(O)c1)C2 (single isomer, unassigned; (-))"
readout_number = 3.3


Report Ki for CC1CN(CCCc2ccccc2)C2C[C@H](N)CC1(c1cccc(O)c1)C2 (single isomer, unassigned; (+)) please. 207

Cited source for all entries: ChEMBL document CHEMBL1135969
